System: MCF10A
protocolNotes: percent viability (nuclei count relative to siNT); higher = more viable cells
testSettings: 20 nM; 72 h
propertyLabel: percent viability (%)
Numeric only. Scale: %

Value lookup for percent viability; key = CCAGUUACCGCUUCCGCUACCGC [hsa-miR-935]
59

Try this sequence too: GGGUUUGUAGCUUUGCUGGCAUG [hsa-miR-5087]
26.6

Same lookup for CUUGGGAGCCCUGUUAGACUC [hsa-miR-887-5p] , please.
176

Entry UUGUGGGUGGGCAGAAGUCUGU [hsa-miR-6759-5p] please
21.7

Next sequence: GCGACUCUGAAAACUAGAAGGU [hsa-miR-4431]
82.9

Same question, UCCCUUCUUCCUGGGCCCUCA [hsa-miR-5088-3p] this time
59.2

For UAUGUCCCAUCCCUCCAUCA [hsa-miR-6834-3p] then?
22.7

And what about the sequence UGUUCCUCUGUCUCCCAGAC [hsa-miR-4326] ?
32.4

For CUAUACGGCCUCCUAGCUUUCC [hsa-let-7e-3p] then?
45

Same question, CUAGCACACAGAUACGCCCAGA [hsa-miR-585-5p] this time
36.5

Again, but for ACAUUUUCCAGCCCAUUCA [hsa-miR-1250-3p]
12.3

Same for GGCGGCGGGGAGGUAGGCAG [hsa-miR-8072]
49.8
